The entries below are paired with their reported log10(IC50).
# Target desc: IRAK4 (Homo sapiens, UniProt Q9NWZ3)
# Sequence (Q9NWZ3 1-460): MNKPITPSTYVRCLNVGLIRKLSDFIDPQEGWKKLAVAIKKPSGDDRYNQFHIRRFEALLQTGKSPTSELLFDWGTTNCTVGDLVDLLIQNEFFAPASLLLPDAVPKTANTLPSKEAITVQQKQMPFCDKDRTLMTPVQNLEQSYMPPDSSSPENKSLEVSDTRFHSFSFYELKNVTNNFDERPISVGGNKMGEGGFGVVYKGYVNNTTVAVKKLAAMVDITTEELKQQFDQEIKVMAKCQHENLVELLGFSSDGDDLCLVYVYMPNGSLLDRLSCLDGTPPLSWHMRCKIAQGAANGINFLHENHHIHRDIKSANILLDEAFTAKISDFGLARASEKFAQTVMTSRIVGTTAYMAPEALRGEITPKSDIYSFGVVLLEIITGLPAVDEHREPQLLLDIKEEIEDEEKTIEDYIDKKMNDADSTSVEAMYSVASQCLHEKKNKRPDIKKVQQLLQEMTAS
# Assay info: RBC HotSpot Kinase Assay, IRAK4
# Type: biochemical
# Set-up: purchased Reaction Biology (RBC), HotSpot kinase assay
# Conditions used: isolated kinase, 33P-ATP
The figures below represent log10 of IC50, where IC50 is stated in nM.

Sample answers from the record:
{"columns": ["Compound", "log10(IC50)"],
 "data": [
  ["FC(F)(F)C1(c2cn3c(-c4cccc(N[C@H]5CNCC56CC6)n4)cnc3cn2)CC1 [Compound 12]", 0.48],
  ["CCOc1cn2c(-c3cccc(N[C@H]4CNC[C@@H]4F)n3)cnc2cn1 [compound 57]", 0.30],
  ["O=C1NCCN1c1cn2c(-c3cccc(N[C@H]4CNC[C@@H]4F)n3)cnc2cn1 [Compound 117]", 0.30]
]}

QUERY: Using the record for CC1(c2cn3c(-c4cccc(N[C@H]5CNC[C@@H]5C(F)(F)F)n4)cnc3cn2)CC1 [Compound 4] , report its log10(IC50).
RESULT: 0.30

QUERY: Record request: log10(IC50) value, item F[C@H]1CCNC[C@@H]1Nc1cccc(-c2cnc3cnccn23)n1 [Compound 70]
RESULT: 1.30

QUERY: Look at this compound and give its reported log10(IC50). CC(O)(c1cn2c(-c3cc(F)cc(N[C@H]4CNCC[C@@H]4F)n3)cnc2cn1)C(F)(F)F (single isomer, unassigned) [Compound 88]
RESULT: 1.18

QUERY: Would you kindly share the measured log10(IC50) for F[C@H]1CCNC[C@@H]1Nc1cccc(-c2cnc3cnc(C4CC4)cn23)n1 [Compound 51] ?
RESULT: 0.00

QUERY: Query: log10(IC50); subject: CC1(C)CCNCC1Nc1cccc(-c2cnc3cnccn23)n1 (centres unmarked) [Compound 74]
RESULT: 1.15

----------
# Tested on: MOLM14 D835Y cells
# Assay info: MOLM14 D835Y cell viability assay (Cell Titer Glo)
# Assay type: cell-based
# Conditions used: Homo sapiens, MOLM-14, 48 h
Binary label based on IC50 with cut-off 40 nM: below gives Y, not below gives N.

Past entries and their recorded results:
{"columns": ["Compound", "Classification"],
 "data": [
  ["c1cc(N[C@@H]2CCCNC2)nc(-c2cnc3cnc(C4CC4)cn23)c1", "Y"],
  ["O=S1(=O)CCCN1c1cn2c(-c3nc(N[C@H]4CNCC[C@@H]4F)c(F)cc3F)cnc2cn1", "Y"],
  ["CC(C)(C)c1cn2c(-c3cc(F)cc(N[C@H]4CNCC[C@@H]4F)n3)cnc2cn1", "N"]
]}

Consider now this further compound.
QUERY: Dear reviewer, please state whether CC(O)(c1cn2c(-c3cc(F)cc(N[C@@H]4CCCNC4)n3)cnc2cn1)C(F)(F)F (single isomer, unassigned) has IC50 strictly beneath 40 nM.
RESULT: N

----------
# Target desc: FLT3 N841I (Homo sapiens, UniProt P36888, N841I)
# Assay info: DiscoverX KINOMEscan competition binding, FLT3 N841I
Metric name: Kd (nM)
Output spec: scalar in nM, unitless text.

The following compounds have reported results that may help.
{"columns": ["Input smiles", "Unit name", "Kd"],
 "data": [
  ["FC(F)(F)C1(c2cn3c(-c4cccc(N[C@@H]5CCNC5)n4)cnc3cn2)CC1", "nM", 0.29],
  ["CC1(c2cn3c(-c4cccc(N[C@@H]5CCNC5)n4)cnc3cn2)CC1", "nM", 0.12],
  ["FC(F)(F)COc1cn2c(-c3cccc(N[C@@H]4CCNC4)n3)cnc2cn1", "nM", 0.52],
  ["Cn1cc(-c2cn3c(-c4cccc(N[C@H]5CNC[C@@H]5F)n4)cnc3cn2)cn1", "nM", 0.24]
]}

QUERY: Would you mind telling me what Kd value was observed for F[C@H]1CNC[C@@H]1Nc1cccc(-c2cnc3cnc(C4CC4)cn23)n1 ?
RESULT: 0.25

QUERY: Kd lookup needed for CC(C)(O)c1cn2c(-c3cccc(N[C@@H]4CCCNC4)n3)cnc2cn1 , thanks.
RESULT: 3.5

QUERY: What value of measured Kd is listed for FC(F)c1cn2c(-c3cccc(N[C@H]4CNCC[C@@H]4F)n3)cnc2cn1 ?
RESULT: 0.27

QUERY: What value of Kd has been recorded for this entry: CC1(c2cn3c(-c4cccc(N[C@H]5CNCC56CC6)n4)cnc3cn2)CC1
RESULT: 0.091

----------
# Target desc: FLT3 ITD, D835V (Homo sapiens, UniProt P36888, D835V, form not given)
# Construct: fused on or other part: DNA tag for qPCR detection (T7 phage fusion or DNA-tagged protein from HEK-293 cells)
# Assay info: DiscoverX KINOMEscan competition binding, FLT3 ITD, D835V
Collected pKd values appear next to each entry.
API: returns pKd as number; meaning -log10 of concentration in mol/L.

QUERY: Return reported pKd; argument: CC1(c2cn3c(-c4cccc(N[C@H]5CNC[C@@H]5F)n4)cnc3cn2)CC1
RESULT: 11.52

QUERY: // pKd lookup, key: FC(F)(F)COc1cn2c(-c3cccc(N[C@@H]4CCNC4)n3)cnc2cn1
RESULT: 10.59

QUERY: Which pKd value belongs to CC1(c2cn3c(-c4cccc(N[C@H]5CNCC56CC6)n4)cnc3cn2)CC1 ?
RESULT: 11.30

QUERY: Item Cn1cc(-c2cn3c(-c4cccc(N[C@H]5CNC[C@@H]5F)n4)cnc3cn2)cn1 has what recorded pKd?
RESULT: 11.52

QUERY: Dear colleague, I am looking for the recorded pKd of the following molecule: FC(F)c1cn2c(-c3cccc(N[C@H]4CNC[C@@H]4F)n3)cnc2cn1
RESULT: 11.22

QUERY: Which pKd reading was recorded for the molecule CC(C)(O)c1cn2c(-c3cccc(N[C@@H]4CCCNC4)n3)cnc2cn1 ?
RESULT: 9.85

QUERY: Could you share which pKd value was measured for CC(C)(O)c1cn2c(-c3cccc(N[C@H]4CNCC[C@@H]4F)n3)cnc2cn1 ?
RESULT: 10.36

QUERY: May I ask what pKd has been recorded for CC1(c2cn3c(-c4cccc(N[C@@H]5CCNC5)n4)cnc3cn2)CC1 ?
RESULT: 11.40

----------
Recorded pIC50, one value per entry.
# Target desc: FLT3 (Homo sapiens)
# Sequence (P36888 27-993): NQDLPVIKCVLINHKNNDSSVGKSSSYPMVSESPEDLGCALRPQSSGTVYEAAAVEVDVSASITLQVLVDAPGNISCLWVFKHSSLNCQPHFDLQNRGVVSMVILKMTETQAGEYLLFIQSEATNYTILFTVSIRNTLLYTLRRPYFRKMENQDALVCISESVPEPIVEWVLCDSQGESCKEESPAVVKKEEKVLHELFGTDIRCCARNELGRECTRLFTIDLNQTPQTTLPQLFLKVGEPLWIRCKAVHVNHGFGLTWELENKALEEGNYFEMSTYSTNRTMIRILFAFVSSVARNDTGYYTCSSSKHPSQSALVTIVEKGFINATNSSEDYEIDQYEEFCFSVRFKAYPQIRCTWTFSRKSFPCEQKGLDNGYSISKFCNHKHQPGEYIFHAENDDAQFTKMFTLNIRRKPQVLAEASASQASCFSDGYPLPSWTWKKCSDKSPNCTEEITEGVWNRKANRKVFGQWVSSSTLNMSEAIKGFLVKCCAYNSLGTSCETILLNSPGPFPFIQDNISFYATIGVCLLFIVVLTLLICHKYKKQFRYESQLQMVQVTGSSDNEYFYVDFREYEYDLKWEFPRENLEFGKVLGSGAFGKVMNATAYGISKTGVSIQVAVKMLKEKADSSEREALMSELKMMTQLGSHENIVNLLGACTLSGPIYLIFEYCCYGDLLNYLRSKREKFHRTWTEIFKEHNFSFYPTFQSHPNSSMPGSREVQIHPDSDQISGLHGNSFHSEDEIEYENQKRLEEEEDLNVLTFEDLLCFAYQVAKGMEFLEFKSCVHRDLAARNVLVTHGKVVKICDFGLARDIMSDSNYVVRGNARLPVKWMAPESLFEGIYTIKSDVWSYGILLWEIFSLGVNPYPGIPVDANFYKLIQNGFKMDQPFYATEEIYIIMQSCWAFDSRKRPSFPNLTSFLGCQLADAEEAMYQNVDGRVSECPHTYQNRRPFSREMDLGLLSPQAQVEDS
# Assay info: RBC HotSpot Kinase Assay, FLT3
# Format: biochemical
# Design: purchased Reaction Biology (RBC), HotSpot kinase assay
# Conditions used: isolated kinase, 33P-ATP
To interpret pIC50, take it as minus log10 of a concentration measured in moles per litre.

// worked examples, pIC50 included
{"columns": ["Compound", "Metric name", "Observed value"],
 "data": [
  ["CC(O)(c1cn2c(-c3cccc(N[C@H]4CNCC[C@@H]4F)n3)cnc2cn1)C(F)(F)F (single isomer, unassigned) [Compound 80]", "pIC50", 9.22],
  ["CC(C)(C)c1cn2c(-c3cc(F)cc(N[C@@H]4CCCNC4)n3)cnc2cn1 [Compound 123]", "pIC50", 9.22],
  ["FC(F)n1cc(-c2cn3c(-c4cccc(N[C@H]5CNC[C@@H]5F)n4)cnc3cn2)cn1 [Compound 53]", "pIC50", 9.22],
  ["CC(O)(c1cn2c(-c3nc(N[C@H]4CNCC[C@@H]4F)c(F)cc3F)cnc2cn1)C(F)(F)F (single isomer, unassigned) [Compound 92]", "pIC50", 8.70],
  ["O=C1NCCN1c1cn2c(-c3cccc(N[C@H]4CNC[C@@H]4F)n3)cnc2cn1 [Compound 117]", "pIC50", 9.10],
  ["O=S1(=O)CCCCN1c1cn2c(-c3nc(N[C@H]4CNC[C@@H]4F)c(F)cc3F)cnc2cn1 [Compound 102]", "pIC50", 8.70]
]}

# input for lookup
QUERY: Returns the measured pIC50 for the input compound. Input: C[C@H]1C[C@@H](Nc2cccc(-c3cnc4cnc(C5(C)CC5)cn34)n2)CCN1 [Compound 7]
RESULT: 9.00
